target: T1, VLP2 (virus-like particles of AAV2) (AAV2, UniProt P03135 1-735; P03135 1-598; P03135 1-533); assay: ELISA on VLP2; A450 after pH 3.0 60.1°C 15 min / 25°C
T1 construct: Empty AAV2 capsid; background says about 60 protein molecules, VP1:VP2:VP3 = 1:1:10; Immobilised on the ELISA plate
T1 sequence (P03135 whole entry, chain 1 of 3): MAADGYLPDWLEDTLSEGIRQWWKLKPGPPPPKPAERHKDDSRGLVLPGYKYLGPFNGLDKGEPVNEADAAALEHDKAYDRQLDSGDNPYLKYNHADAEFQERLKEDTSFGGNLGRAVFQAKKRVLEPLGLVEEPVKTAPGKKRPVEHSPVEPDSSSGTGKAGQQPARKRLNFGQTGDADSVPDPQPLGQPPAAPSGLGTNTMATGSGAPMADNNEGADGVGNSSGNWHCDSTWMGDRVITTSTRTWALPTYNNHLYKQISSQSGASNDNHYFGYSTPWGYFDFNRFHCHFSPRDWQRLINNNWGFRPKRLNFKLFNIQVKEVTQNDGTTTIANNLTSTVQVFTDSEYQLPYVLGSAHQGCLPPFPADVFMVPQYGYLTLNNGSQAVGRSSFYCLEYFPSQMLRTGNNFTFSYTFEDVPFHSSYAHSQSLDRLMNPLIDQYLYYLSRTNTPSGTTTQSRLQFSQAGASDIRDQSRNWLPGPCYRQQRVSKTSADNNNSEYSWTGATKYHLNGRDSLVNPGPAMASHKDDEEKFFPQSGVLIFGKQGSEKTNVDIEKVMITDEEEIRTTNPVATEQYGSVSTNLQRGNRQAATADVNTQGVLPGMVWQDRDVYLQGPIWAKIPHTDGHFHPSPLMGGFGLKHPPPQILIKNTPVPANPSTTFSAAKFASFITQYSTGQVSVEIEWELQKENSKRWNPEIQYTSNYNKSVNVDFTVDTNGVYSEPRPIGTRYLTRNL
T1 sequence (P03135 139-735, tags left off, chain 2 of 3): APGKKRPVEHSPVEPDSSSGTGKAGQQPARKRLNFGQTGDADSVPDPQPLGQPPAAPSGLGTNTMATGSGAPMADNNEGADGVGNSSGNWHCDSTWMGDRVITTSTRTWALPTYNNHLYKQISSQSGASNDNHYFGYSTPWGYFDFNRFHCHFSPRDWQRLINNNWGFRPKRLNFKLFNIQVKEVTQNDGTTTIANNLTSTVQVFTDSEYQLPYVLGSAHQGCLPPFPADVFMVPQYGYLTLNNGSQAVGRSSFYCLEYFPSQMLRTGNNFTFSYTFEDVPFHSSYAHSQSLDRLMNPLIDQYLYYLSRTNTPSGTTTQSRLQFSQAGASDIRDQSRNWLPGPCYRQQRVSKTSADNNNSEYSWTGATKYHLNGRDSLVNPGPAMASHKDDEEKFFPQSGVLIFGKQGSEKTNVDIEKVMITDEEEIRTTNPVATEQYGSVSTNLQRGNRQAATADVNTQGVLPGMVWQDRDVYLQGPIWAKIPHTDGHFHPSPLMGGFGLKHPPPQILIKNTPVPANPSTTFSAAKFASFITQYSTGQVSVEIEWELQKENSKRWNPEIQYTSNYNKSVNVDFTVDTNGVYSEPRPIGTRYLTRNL
T1 sequence (P03135 203-735, chain 3 of 3): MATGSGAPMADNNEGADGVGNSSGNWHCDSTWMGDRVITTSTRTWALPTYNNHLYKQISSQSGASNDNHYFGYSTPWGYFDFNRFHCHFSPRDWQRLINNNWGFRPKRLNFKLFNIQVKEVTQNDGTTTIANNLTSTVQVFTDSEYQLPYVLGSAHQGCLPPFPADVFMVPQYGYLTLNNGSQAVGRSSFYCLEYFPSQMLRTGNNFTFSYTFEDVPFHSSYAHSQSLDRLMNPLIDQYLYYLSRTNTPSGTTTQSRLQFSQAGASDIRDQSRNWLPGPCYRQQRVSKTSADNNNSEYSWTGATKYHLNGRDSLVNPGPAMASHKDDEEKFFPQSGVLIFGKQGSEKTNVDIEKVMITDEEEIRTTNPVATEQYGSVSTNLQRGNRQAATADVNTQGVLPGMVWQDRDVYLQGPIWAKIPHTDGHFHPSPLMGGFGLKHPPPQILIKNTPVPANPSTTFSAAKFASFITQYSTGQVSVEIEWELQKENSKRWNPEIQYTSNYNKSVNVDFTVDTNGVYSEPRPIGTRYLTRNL
Attribute: Residual activity after heat treatment [%]
Give your result in % as a bare value.

AVR5e (Tyr342Cys, Gly390Ser, Lys399Glu, Ser476Arg, Asn487Asp) (receptor) MGSAGESVQITLPKNEVQLNAYVLQEPPKGETCTYDWQLITHPRDYSGEMEGKHSQILKLSKLTPGLYEFKVIVEGQNAHSEGYVNVTVEPEPRKNRPPIAIVSPQFQEISLPTTSTVIDGSQSTDDDKIVQYHWEELKGPLREEKISEDTAILKLSKLVPGNYTFRLTVVDSDGATDSTTANLTVNKAVDHHHHHH; 56

Prompt line: Could you please provide reported Residual activity after heat treatment [%] for AVR4a (Ile319Phe, Tyr342Cys, Gly390Ser, Ser476Arg) (receptor) MGSAGESVQFTLPKNEVQLNAYVLQEPPKGETCTYDWQLITHPRDYSGEMEGKHSQILKLSKLTPGLYEFKVIVEGQNAHSEGYVNVTVKPEPRKNRPPIAIVSPQFQEISLPTTSTVIDGSQSTDDDKIVQYHWEELKGPLREEKISEDTAILKLSKLVPGNYTFRLTVVDSDGATNSTTANLTVNKAVDHHHHHH ? Thanks!
Response line: 16

Prompt line: Could you please provide reported Residual activity after heat treatment [%] for AVR4d (Tyr342Cys, Gly390Ser, Ser476Arg, Asn487Asp) (receptor) MGSAGESVQITLPKNEVQLNAYVLQEPPKGETCTYDWQLITHPRDYSGEMEGKHSQILKLSKLTPGLYEFKVIVEGQNAHSEGYVNVTVKPEPRKNRPPIAIVSPQFQEISLPTTSTVIDGSQSTDDDKIVQYHWEELKGPLREEKISEDTAILKLSKLVPGNYTFRLTVVDSDGATDSTTANLTVNKAVDHHHHHH ? Thanks!
Response line: 35

Prompt line: Could you please provide reported Residual activity after heat treatment [%] for AVR3 (AAV-binding protein No. 75; Tyr342Cys, Gly390Ser, Ser476Arg) (receptor) MGSAGESVQITLPKNEVQLNAYVLQEPPKGETCTYDWQLITHPRDYSGEMEGKHSQILKLSKLTPGLYEFKVIVEGQNAHSEGYVNVTVKPEPRKNRPPIAIVSPQFQEISLPTTSTVIDGSQSTDDDKIVQYHWEELKGPLREEKISEDTAILKLSKLVPGNYTFRLTVVDSDGATNSTTANLTVNKAVDHHHHHH ? Thanks!
Response line: 3
